Listed here: items and their measured pKd.
molecular target: SCRIB_3, Q14160; test: holdup assay; design: key: below the threshold = too weak to quantify, mostly under pKd 3.1 to 4; details: plain residues with an end cap or a label only (N-terminal biotin on a linker: ado-ado)
Sequence (Q14160 999-1103): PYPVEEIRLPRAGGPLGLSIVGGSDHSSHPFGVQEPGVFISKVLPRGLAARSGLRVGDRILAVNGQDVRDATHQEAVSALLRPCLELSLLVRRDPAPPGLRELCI
measurementKind: pKd

> print(dat)
                       binder  reportedmeasurement
1  EVNETDDTKM [KCNJ1, P48048]                 3.67
2  EVEEFPETSV [TRPV3, Q8NET8]                 5.02
3   LGRSTPQSEV [DGKH, Q86XP1]                  3.8
4   LKVPPEERLI [CRB2, Q5IJ48]                 3.75
